Assay: method code SF, from Fulcrand, P.; Berge, G.; Noel, A. (1978). Hydrazides as monoamine oxidase inhibitors. Hansch and Free Wilson correlations. Eur J Med Chem, 13(2)177-182.
endpoint.label: logP
Give bare numbers.

Look up logP for this molecule: CC(C)NNC(=O)COc1ccc(Cl)cc1
2.01

====

Experiment: method code SF-AS, from Fulcrand, P.; Berge, G.; Noel, A. (1978). Hydrazides as monoamine oxidase inhibitors. Hansch and Free Wilson correlations. Eur J Med Chem, 13(2)177-182.
Hi there, I'd appreciate the recorded logP for every entry that follows.

CC(C)NNC(=O)COc1cccc(Cl)c1 | 1.91
CCNNC(=O)COc1ccccc1 | 1
Cc1cccc(OCC(=O)NNC(C)C)c1 | 1.77
Cc1cccc(OC(C)C(=O)NNC(C)C)c1 (stereo not drawn) | 1.88
CC(C)NNC(=O)COc1ccccc1 | 1.24

Items follow; give logP for each.
1. CC(C)NNC(=O)C(C)Oc1ccc(Cl)cc1 (stereo not drawn)
2. O=C(COc1ccccc1)NNCc1ccccc1
3. CCNNC(=O)COc1ccc(Cl)cc1
4. CC(C)NNC(=O)C(C)Oc1cccc(Cl)c1 (stereo not drawn)

2.14
2.16
1.73
2.18

Items follow; give logP for each.
1. COc1ccc(OCC(=O)NNC(C)C)cc1
2. COc1ccc(OCC(=O)NNC(C)c2ccccc2)cc1 (stereo not drawn)
3. CC(C)NNC(=O)C(C)(C)Oc1ccccc1
4. COc1ccccc1OCC(=O)NNC(C)C

[1.21, 2.39, 1.88, 1.11]

Items follow; give logP for each.
1. CC(C)NNC(=O)COc1ccccc1Cl
2. CC(NNC(=O)COc1ccccc1)c1ccccc1 (stereo not drawn)
3. Cc1ccccc1OCC(=O)NNC(C)C
4. Cc1ccc(OCC(=O)NNC(C)C)cc1
5. CC(C)NNC(=O)C(C)Oc1ccccc1Cl (stereo not drawn)

1: 1.82; 2: 2.46; 3: 1.83; 4: 1.81; 5: 2
